These data points were gathered from patent US20230113609A1.

- tgt: human SSTR5 (Homo sapiens, UniProt P35346)
- Sequence (P35346 whole entry): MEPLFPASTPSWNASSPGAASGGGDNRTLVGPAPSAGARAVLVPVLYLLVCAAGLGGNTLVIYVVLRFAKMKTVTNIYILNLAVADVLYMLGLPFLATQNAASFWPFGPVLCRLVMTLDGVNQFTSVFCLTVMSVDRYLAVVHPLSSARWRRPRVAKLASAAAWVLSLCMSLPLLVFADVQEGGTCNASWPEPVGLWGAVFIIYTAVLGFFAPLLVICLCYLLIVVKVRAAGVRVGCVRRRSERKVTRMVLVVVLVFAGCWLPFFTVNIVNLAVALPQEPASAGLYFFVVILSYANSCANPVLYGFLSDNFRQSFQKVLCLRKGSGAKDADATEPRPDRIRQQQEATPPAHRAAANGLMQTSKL
- experimental-details: Inositol phosphate accumulation assay (IP1 HTRF, antagonist mode)
- cond: CHO-K1 cells co-expressing human SSTR5 with Gqi5, SST28 agonist at concentration generating 90% of full activation
recorded-metric: IC50

Illustrative cases are given below, each with its answer.
CCOc1cc(C(=O)OC)c(C2CC2)cc1CN1CCN(C(=O)Nc2ccc(C(=O)NC[C@H](O)[C@@H](O)[C@H](O)[C@H](O)CO)cc2)CC1
1000 to 5000 nM
CCOc1cc(C(=O)OC)c(C2CC2)cc1CN1CCC2(CC1)CN(c1ccc(C(=O)NC[C@H](O)[C@@H](O)[C@H](O)[C@H](O)CO)cc1)C(=O)O2
≤ 100 nM

Let us examine a further case.
Request: Record request: IC50 value, item `CCOc1cc(C(=O)OC)c(C2CC2)cc1CN1CCC2(CC1)CC(=O)N(c1ccc(C(=O)NCCCCP(=O)(O)O)cc1)C2`
Response: 100 to 1000 nM

* * *

- experimental-details: Oral bioavailability of the compounds after oral dosing in rat
- cond: in vivo, Sprague Dawley rats, IV 1 mg/kg, PO 5 mg/kg, vehicle 5% DMSO + 30% PEG400 + 65% water
recorded-metric: bioavailability (%)
Reply with just the number (in %).

Request: Reported bioavailability for CCOc1cc(-c2ccc(F)cn2)c(C2CC2)cc1CN1CCC2(CC1)CN([C@H]1CC[C@](C)(C(=O)NCCOCCO)CC1)C(=O)O2 [compound 90] : what is it?
Response: 2.6

* * *

Below: a set of entries, each annotated with reported pIC50.
- tgt: human SSTR5 (Homo sapiens, UniProt P35346)
- experimental-details: Inositol phosphate accumulation assay (IP1 HTRF, antagonist mode)
- cond: CHO-K1 cells co-expressing human SSTR5 with Gqi5, SST28 agonist at concentration generating 90% of full activation
pIC50: −log10 of the molar value.

Request: Which pIC50 is reported with human SSTR5 (Homo sapiens, UniProt P35346) for this entry: `CCOc1cc(-c2ccc(F)cc2)c(C2CC2)cc1CN1CCC2(CC1)CN(c1ccc(C(=O)NCCOCCO)cc1)C(=O)N2` ?
Response: ≥ 7.00

* * *

- tgt: human SSTR5 (Homo sapiens, UniProt P35346)
- experimental-details: Inositol phosphate accumulation assay (IP1 HTRF, antagonist mode)
- cond: CHO-K1 cells co-expressing human SSTR5 with Gqi5, SST28 agonist at concentration generating 90% of full activation
recorded-metric: IC50

Here's what some known entries look like.
CCOc1cc(C(=O)OC)c(C2CC2)cc1CN1CCC2(CC1)CC(=O)N(c1ccc(C(=O)NCCN3CCNC3=O)cc1)C2 [Example 40]
100 to 1000 nM
CCOc1cc(CN2CCC3(CC2)CN(c2ccc(C(=O)NCCCC(=O)NC(CO)(CO)CO)cc2)C(=O)O3)cc(OCC)c1-c1ccc(F)cc1 [Example 5]
100 to 1000 nM

Let us move to another entry and its IC50.
Request: Would you kindly share the measured IC50 for CCOc1cc(C(=O)OC)c(C2CC2)cc1CN1CCN(C(=O)Cc2ccc(C(=O)NC[C@H](O)[C@@H](O)[C@H](O)[C@H](O)CO)cc2)CC1 [Example 97] ?
Response: > 5000 nM

* * *

- tgt: human SSTR5 (Homo sapiens)
- experimental-details: Inositol phosphate accumulation assay (IP1 HTRF, antagonist mode)
- cond: CHO-K1 cells co-expressing human SSTR5 with Gqi5, SST28 agonist at concentration generating 90% of full activation
Below, each entry is listed with its recorded IC50.

// known answers, use as guide
CCOc1cc(CN2CCC3(CC2)CN(c2ccc(C(=O)NC[C@H](O)[C@@H](O)[C@H](O)[C@H](O)COC(=O)CCC(=O)O)cc2)C(=O)O3)cc(OCC)c1-c1ccc(F)cc1
0.1 to 1 µM
CCOc1cc(C(=O)OC)c(C2CC2)cc1CN1CCC2(CC1)CN(c1ccc(C(=O)NCCCNC(N)=O)cc1)C(=O)N2
> 5 µM
CCOc1cc(C(=O)OC)c(C2CC2)cc1CN1CCC2(CC1)CC(=O)N(c1ccc(C(=O)NCCCNC(=N)N)cc1)C2
0.1 to 1 µM
CCOc1cc(C(=O)OC)c(C2CC2)cc1CN1CCC2(CC1)CC(=O)N(c1ccc(C(=O)NCC[N+](C)(C)C)cc1)C2
1 to 5 µM
CCOc1cc(-c2ccc(F)cc2)c(C2CC2)cc1CN1CCC2(CC1)CN(c1ccc(S(=O)(=O)NCCCNC(=N)N)cc1)C(=O)O2
≤ 0.1 µM

Request: Find the recorded IC50 belonging to `CCOc1cc(C(=O)OC)c(C2CC2)cc1CN1CCC2(CC1)CC(=O)N(c1ccc(C(=O)NCCCS(N)(=O)=O)cc1)C2` and report it.
Response: 0.1 to 1 µM

Request: Which IC50 value is on record for `CCOc1cc(CN2CCC3(CC2)CN(c2ccc(C(=O)NC[C@H](O)[C@@H](O)[C@H](O)[C@H](O)CO)cc2)C(=O)O3)cc(OCC)c1-c1ccc(F)cc1` ?
Response: 0.1 to 1 µM

Request: So what does the record say about IC50 for `CCOc1cc(CN2CCC3(CC2)CN(c2ccc(C(=O)NCCC[N+](C)(C)C)cc2)C(=O)O3)cc(OCC)c1-c1ccc(F)cc1` ?
Response: 0.1 to 1 µM

Request: Returns the measured IC50 for the input compound. Input: `CCOc1cc(C(=O)OC)c(C2CC2)cc1CN1CCC2(CC1)CC(=O)N(c1ccc(C(=O)NCCCC(=O)O)cc1)C2`
Response: > 5 µM

Request: I have this compound here, `CCOc1cc(C(=O)OCc2oc(=O)oc2C)c(C2CC2)cc1CN1CCC2(CC1)CC(=O)N(c1ccc(C(=O)NC[C@H](O)[C@@H](O)[C@H](O)[C@H](O)CO)cc1)C2` , and I need its recorded IC50.
Response: > 5 µM

* * *

- tgt: human SSTR5 (Homo sapiens, UniProt P35346)
- experimental-details: Inositol phosphate accumulation assay (IP1 HTRF, antagonist mode)
- cond: CHO-K1 cells co-expressing human SSTR5 with Gqi5, SST28 agonist at concentration generating 90% of full activation
pIC50: −log10 of the molar value.
The reader will find reported pIC50 values listed item by item below.

Worked cases, pIC50 given:
CCOc1cc(CN2CCC3(CC2)CN(c2ccc(C(=O)N4CC(C(=O)NCCC[N+](C)(C)C)C4)cc2)C(=O)O3)cc(OCC)c1-c1ccc(F)cc1
5.30 to 6.00
CCOc1cc(C(=O)OC)c(C2CC2)cc1CN1CCC2(CC1)CC(=O)N(c1ccc(C(=O)N3CCC(CS(N)(=O)=O)CC3)cc1)C2
6.00 to 7.00
CCOc1cc(C(=O)OC)c(C2CC2)cc1CN1CCC2(CC1)CC(=O)N(c1ccc(C(=O)NCCOCC[N+]34CCN(CC3)CC4)cc1)C2
< 5.30
CCOc1cc(-c2ccc(F)cn2)c(C2CC2)cc1CN1CCC2(CC1)CN([C@H]1CC[C@@](C)(C(=O)NCCOCCO)CC1)C(=O)O2
6.00 to 7.00
CCOc1cc(C(=O)OC)c(C2CC2)cc1CN1CCC2(CC1)CC(=O)N(c1ccc(C(=O)NCCCS(=O)(=O)O)cc1)C2
< 5.30

# ---- query compound ----
Request: Tell me the measured pIC50 of `CCOc1cc(-c2ccc(F)cc2)c(C2CC2)cc1CN1CCC2(CC1)CN(c1ccc(S(=O)(=O)NCCOCCO)cc1)C(=O)N2` , please.
Response: ≥ 7.00

* * *

Below, each entry is listed with its recorded IC50.
- tgt: human SSTR5 (Homo sapiens)
- experimental-details: Inositol phosphate accumulation assay (IP1 HTRF, antagonist mode)
- cond: CHO-K1 cells co-expressing human SSTR5 with Gqi5, SST28 agonist at concentration generating 90% of full activation

CCOc1cc(C(=O)OC)c(C2CC2)cc1CN1CCC2(CC1)CN(c1ccc(C(=O)NCCCS(N)(=O)=O)cc1)C(=O)O2
≤ 0.1 µM

Request: Quick check: IC50 of `CCOc1cc(CN2CCC3(CC2)CN(c2ccc(C(=O)NC[C@H](O)[C@@H](O)[C@H](O)[C@H](O)CO)cc2)C(=O)O3)cc(CO)c1-c1ccc(F)cc1` ?
Response: > 5 µM

Request: Could you share which IC50 value was measured for `CCOc1cc(-c2ccc(F)cn2)c(C2CC2)cc1CN1CCC2(CC1)CN([C@H]1CC[C@](C)(C(=O)NCCCS(=O)(=O)O)CC1)C(=O)O2` ?
Response: ≤ 0.1 µM

Request: Given the entry `CCOc1cc(C(=O)OC)c(C2CC2)cc1CN1CCC2(CC1)CC(=O)N(c1ccc(C(=O)NCCO)cc1)C2` , report its measured IC50.
Response: ≤ 0.1 µM

Request: Name the recorded IC50 for `CCOc1cc(-c2ccc(F)cc2)c(C2CC2)cc1CN1CCC2(CC1)CN(c1ccc(C(=O)NCCOCCOCCO)cc1)C(=O)N2` .
Response: ≤ 0.1 µM

Request: Fill blank: measured IC50 of the compound `CCOc1cc(-c2ccc(F)cc2)c(C2CC2)cc1CN1CCC2(CC1)CN(c1ccc(C(=O)NCCCS(=O)(=O)O)cc1)C(=O)O2` is ____.
Response: ≤ 0.1 µM
